MFI reference
Molecular target: T1, human CLDN6 protein (human, UniProt P56747 1-220)
T1 construct: whole, on cells; also called hCLDN6; claudin 6
T1 sequence (looked up): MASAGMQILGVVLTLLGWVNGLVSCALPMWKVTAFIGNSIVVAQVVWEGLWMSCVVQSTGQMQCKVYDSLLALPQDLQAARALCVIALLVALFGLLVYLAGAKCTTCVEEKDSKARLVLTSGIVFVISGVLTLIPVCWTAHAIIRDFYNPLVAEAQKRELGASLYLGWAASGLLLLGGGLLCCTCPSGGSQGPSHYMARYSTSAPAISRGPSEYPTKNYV
Experiment: flow cytometry on cells overexpressing human CLDN6; 10 µg/mL purified antibody, Alexa 647 anti-mouse secondary; single point
// no unit, no text: just the number

These recorded examples may help you get a feel for the data.
1. SC27.204 mouse monoclonal anti-CLDN antibody (antibody, V domains shown) VH: EVKVLESGGGLVQPGGSLKLSCAASGFDFSRYWMSWVRQAPGKGLEWIGEINPDSSTINYTPSLKAKFIISRDNAKNTLYLQMSKVRSEDTALYYCTGPAYWGQGTLVTVSA VL: DIVMTQSQKFMSTSVGDRVSVACKAGQNVGTSVAWYQQKPGHSPKSLIYSASYRYSGVPNRFTGSGSGTDFTLTISNVQSEDLADYFCQQYITYPYTFGGGTKLEII
106000
2. SC27.201 mouse monoclonal anti-CLDN antibody (antibody, V domains shown) VL: DIQMTQSSSSFSVSLGDRVTITCKASEDIYNRLAWYQQKPGNAPRLLISGATSLEAGVPSGFSGSGSGKDYTLSITSLQTEDVATYYCQQYWSTPPTFGGGTKLELK V domain: EVQLQQSGPELVKPGASVKISCKTSGYTFTENIRHWVKQSRGKSLEWIGTINPNNGETRYNQKFKGKATLTVDKSSSTAYMELRSLTSEDSAVYYCTRGITKSPYGMDYWGQGTSITVSS
29900

Now for a further binder.
Sure, the documented MFI for SC27.106 (antibody, V domains shown, also called SC27.106 mouse monoclonal anti-CLDN antibody) VH: EVQLQQSGPELVKPGASVKISCKTSGYTFTEYTMHWVKQSHGKSLEWIGGINPNNGGTNYNQKFKGKATLTVDKSSSTAYMELRSLTSEDSAVYYCARRLITYYAMDYWGQGTSVTVSS VL: DIQMTQSSSSFSVSLGDRVTITCKASEDIYNRLAWYQQKPGNAPRLLICGATSLETGVPSRFSGSGSGKDYTLSITSLQTEDVATYYCQQYWSTPLTFGAGTKLELK is 55800
